Tested on: HCT116
assay: In vitro anti-proliferative MTT assay, 48 h, HCT116
Type: cell-based, human
condition.summary: HCT116, colon, 48 h post-treatment, read-out: IC50 (μM) ± S.D., HCT116
measure.name: IC50 (µM)
Unit µM implied. Number only.

- compound: "COC(=O)c1ccccc1-c1c2ccc(=N)cc-2oc2cc(N)ccc12.Cl [Rh123, rhodamine 123, reference compound]"
  IC50 [µM]: 7.92

Given Ic1ccc(-c2c3ccc(=[N+]4CCCCC4)cc-3oc3cc(N4CCCCC4)ccc23)cc1.[Cl-] , report its IC50 on HCT116.
0.39

Given [Cl-].c1csc(-c2c3ccc(=[N+]4CCCCC4)cc-3oc3cc(N4CCCCC4)ccc23)c1 , report its IC50 on HCT116.
0.15

Values compiled from patent US20110212955A1.
